target: T1, human EGFRvIII-hFc protein (human, UniProt P00533 25-645); experiment: ELISA, coated EGFRvIII-hFc, antibody 0.0001 nM
T1 construct: extracellular domain; made in HEK293 cells, purified on protein A; also called immunogen A; hFc-tagged EGFRvIII protein; not shown: human IgG Fc fragment (hFc) of the pCpC vector
Reported OD450 nm values for the following binders.
Number, no unit, nothing else.

[
  {
    "binder": "Murine anti-49G12 (antibody, V domains shown, murine hybridoma antibody; also called 49G12G5) VH: EVQLLQSGAELVKPGASVKLSCTASGFNIKDYYMHWVKQRTEQGLEWIGRIDPEDGETKYAPKFQGKATMTADTSSNTAYLQLSSLTSEDTAVYYCASSAYYGRNYWGQGTTLTVSS VL: QIVLTQSPAIMSASPGEKVTLTCSASSSLSSSYLYWYQQKPGSSPKLWIYSTSNLASGVPARFSGSGSGTSYSLTISSMEAEDAASYFCHQWSSYPYTFGGGTKLEIK",
    "result.number": 0.08
  },
  {
    "binder": "Murine anti-56F10 (antibody, V domains shown, murine hybridoma antibody; also called 56F10G2) VH: EVQLQQSGAELVKPGASVKLSCTASGFNIKDFYMHWVKQRTEQGLEWIGRIDPEDGETKYAPKFQGKATITADTSSNTAYLQLSSLTSEDTAVYYCGCRTGGFAYWGQGTLVTVSA VL: QIVLTQSPAIMSASPGEKVTMTCSASSSVSYLYWYQQKPGSSPSLLIYDTSNLASGVPVRFSGSGSGTSYSLTISRMEAEDAATYYCQQWSRNPWTFGGGTKLEIK",
    "result.number": 0.09
  }
]

The recorded OD450 nm for Murine anti-53D8 (antibody, V domains shown, murine hybridoma antibody; also called 53D8H4) VH: QVQLQQSGAELARPGASVKMSCKASGYTFTSYTMHWVKQRPGQGLEWIGYINPSSGYTKYNQIFKDKATLTADKSSSTAYMQLSSLTSEDSAVYYCTRGGGRGFAYWGQGTLVTVSA VL: DILMTQSPSSMSVSLGDTVSITCHASQDINSNIGWLQQKPGKSFKGLIYHGTNLEDGVPSRFSGSGSGADYSLTISSLESEDFADYYCVQYAQFPFTFGSGTKLEIK is 0.09

The recorded OD450 nm for Murine anti-51G7 (antibody, V domains shown, murine hybridoma antibody; also called 51G7C2) VH: EVQLQQSGAELVKPGASVKLSCTASGFNIKDFYIHWVKQRTEQGLEWIGRIDPEDGETKYAPKFQDKATIIADTSSNTAYLQLSSLTSEDTAVYYCASSSYYGNNYWGQGTTLTVSS VL: QIVLTQSPAIMSASPGEKVTLTCSASSSVSSNYLYWYQQKPGSSPKLWIYSTSNLASGVPARFSGSGSGTSYSLTISSMEAEDAASYFCHQWSSFPYTFGGGTKLEIK is 0.08

The recorded OD450 nm for Murine anti-64B11 (antibody, V domains shown, murine hybridoma antibody; also called 64B11F2) VH: EVQLQQSGAELVKPGASVKLSCTASGFNIKDYYMHWVKQRTEQGLEWIGRIDPEDGETKYAPKFQGKATITADTSSNTAYLQLSNLPSEDTAVYYCGCRTGGFAYWGQGTLVTVSA VL: DILMTQSPSSMSVSLGDTVSITCHASQGINSNIGWLQQKPGKSFKALIYHGTNLEDGVPSRFSGSGSGADYSLTISSLESEDFADYYCVQYAQFPFTFGSGTELEIK is 0.08

Where do these numbers come from? They come from patent US20210032351A1.
